- experiment: Beagle dog PK study 1 of Example 101 (propylene glycol-based formulation, IV and PO), with clinical observations
- Format: in vivo
- measurement setup: beagle, dog, plasma, po, 5 mg/kg, dog PK study 1, oral, Test Animal 1
assay metric: AUC(0-t)
Please answer using a numeric value trailed by its unit.

Query: Fill in the blank: the reported AUC(0-t) of CNC(=O)c1[nH]c(C(=O)NC2CCC2)cc1O[C@@H](C)c1ccccc1 (stereo in doubt) is ____.
Response: 4.52 µg·h/mL

* * *

- experiment: Pharmacokinetics and plasma concentration of Example 101 in Lewis rats after oral administration (CIA study)
- Type: in vivo, Lewis rat
- measurement setup: Lewis, rat, plasma, po, 10 mg/kg, Lewis rats, oral, 10 mg/kg, day 20, mean; read-out: Tmax
assay metric: Tmax

Query: Fill in the blank: the reported Tmax of CNC(=O)c1[nH]c(C(=O)NC2CCC2)cc1O[C@@H](C)c1ccccc1 (stereo in doubt) is ____.
Response: 40.2 min

* * *

- experiment: Beagle dog PK study 1 of Example 101 (propylene glycol-based formulation, IV and PO), with clinical observations
- Type: in vivo
- measurement setup: beagle, dog, plasma, iv, 1 mg/kg, dog PK study 1, IV, 1 h, Test Animal 2; read-out: Plasma concentration
assay metric: concentration at 1 h (ng/mL)
Write down the numeric answer in ng/mL and omit the unit.

Query: Fill in the blank: the reported concentration at 1 h of CNC(=O)c1[nH]c(C(=O)NC2CCC2)cc1O[C@@H](C)c1ccccc1 (stereo in doubt) is ____.
Response: 580

* * *

- experiment: Beagle dog PK study 1 of Example 101 (propylene glycol-based formulation, IV and PO), with clinical observations
- Assay type: in vivo
- measurement setup: beagle, dog, plasma, po, 5 mg/kg, dog PK study 1, oral, Test Animal 2
assay metric: AUC(0-inf) (ng·h/mL)
Write down the numeric answer in ng·h/mL and omit the unit.

Query: Fill in the blank: the reported AUC(0-inf) of CNC(=O)c1[nH]c(C(=O)NC2CCC2)cc1O[C@@H](C)c1ccccc1 (stereo in doubt) is ____.
Response: 2960

* * *

- assay system: BRD4 BD2 (Homo sapiens (Human))
- experiment: NanoBRET bromodomain assay, NanoLuc-BRD4-BD2 fusion in HEK293 cells
- measurement setup: IC50 for BRD4 BD1 divided by IC50 for BRD4 BD2; qualitative if an IC50 is at the upper limit
assay metric: Fold selectivity

Past entries and their recorded results:
>>> data_value("CNC(=O)c1[nH]c(C(=O)NCC(F)(F)F)cc1O[C@@H](C)c1ccccc1F [Example 57]")
"X (Fold >2 and ≤50)"
>>> data_value("CNC(=O)c1[nH]c(C(=O)NC2CC(F)(F)C2)cc1O[C@@H](C)c1ccccc1 [Example 109]")
"X (Fold >2 and ≤50)"
>>> data_value("CCNC(=O)c1cc(OC(C)c2ccc3c(c2)COC3)c(C(=O)NC)[nH]1 (racemic) [Example 15]")
"X (Fold >2 and ≤50)"
>>> data_value("CCCC(Oc1cc(C(=O)NCC)[nH]c1C(=O)NC)c1ccccc1 (racemic) [Example 16]")
"X (Fold >2 and ≤50)"

Query: Fill in the blank: the reported Fold selectivity of CCNC(=O)c1cc(OC(C)c2ccc(C#N)cc2)c(C(=O)NC)[nH]1 (racemic) [Example 9] is ____.
Response: — (Fold ≥0 and ≤2)

Query: And what about the compound CCNC(=O)c1cc(OC(C)c2ccc(F)c(F)c2)c(C(=O)NC)[nH]1 (racemic) [Example 12] ?
Response: X (Fold >2 and ≤50)

Query: And what about the compound CNC(=O)c1[nH]c(-c2ncc(C)[nH]2)cc1O[C@@H](C)c1ccccc1 [23 (2)*] ?
Response: — (Fold ≥0 and ≤2)

* * *

- experiment: Beagle dog PK study 2 of Example 101 (HPβCD based formulation, IV), with clinical observations
- Assay type: in vivo
- measurement setup: beagle, dog, plasma, iv, 1 mg/kg, dog PK study 2, IV 1 mg/kg, HPβCD, 1 h, Test Animal 3; read-out: Plasma concentration
assay metric: concentration at 1 h (ng/mL)
Write down the numeric answer in ng/mL and omit the unit.

Query: Fill in the blank: the reported concentration at 1 h of CNC(=O)c1[nH]c(C(=O)NC2CCC2)cc1O[C@@H](C)c1ccccc1 (stereo in doubt) [Example 101] is ____.
Response: 320

* * *

- experiment: Beagle dog PK study 1 of Example 101 (propylene glycol-based formulation, IV and PO), with clinical observations
- Assay type: in vivo
- measurement setup: beagle, dog, plasma, iv, 1 mg/kg, dog PK study 1, intravenous, Test Animal 2; read-out: Vss—obs
assay metric: Vd (L/kg)
Write down the numeric answer in L/kg and omit the unit.

Query: Fill in the blank: the reported Vd of CNC(=O)c1[nH]c(C(=O)NC2CCC2)cc1O[C@@H](C)c1ccccc1 (stereo in doubt) is ____.
Response: 0.747

* * *

- experiment: Beagle dog PK study 1 of Example 101 (propylene glycol-based formulation, IV and PO), with clinical observations
- Type: in vivo
- measurement setup: beagle, dog, plasma, iv, 1 mg/kg, dog PK study 1, intravenous, Test Animal 1
assay metric: half-life (h)
Write down the numeric answer in h and omit the unit.

Query: Fill in the blank: the reported half-life of CNC(=O)c1[nH]c(C(=O)NC2CCC2)cc1O[C@@H](C)c1ccccc1 (stereo in doubt) is ____.
Response: 1.42

* * *

- experiment: Beagle dog PK study 1 of Example 101 (propylene glycol-based formulation, IV and PO), with clinical observations
- Type: in vivo
- measurement setup: beagle, dog, plasma, po, 5 mg/kg, dog PK study 1, oral, Test Animal 1
- Experimental: The purpose of this study was to examine the pharmacokinetics of Example 101 in beagle dogs. […] An oral PK study was also undertaken in Lewis rats—see Experimental Method C. Body weight was recoded prior to dosing, and detailed clinical observations were made prior to dosing and throughout the study, as needed. Subsequently, 17.320 mL Vitamin E TPGS was added, and the solution was vortexed and sonicated. Then, 51.960 mL water was added, and solution was then heated. […]
assay metric: Cmax (ng/mL)
Write down the numeric answer in ng/mL and omit the unit.

Query: Fill in the blank: the reported Cmax of CNC(=O)c1[nH]c(C(=O)NC2CCC2)cc1O[C@@H](C)c1ccccc1 (stereo in doubt) is ____.
Response: 2220

* * *

- assay system: BRD4 BD2 (Homo sapiens (Human))
- experiment: NanoBRET bromodomain assay, NanoLuc-BRD4-BD2 fusion in HEK293 cells
- measurement setup: IC50 for BRD4 BD1 divided by IC50 for BRD4 BD2; qualitative if an IC50 is at the upper limit
assay metric: Fold selectivity

>>> data_value("CNC(=O)c1[nH]c(C(=O)NC2COC2)cc1OC(C)c1ccc(Cl)cc1F (single isomer, unassigned)")
"XX (Fold >50 and ≤200)"
>>> data_value("CNC(=O)c1[nH]c(C(=O)N[C@H]2CC[C@H](O)CC2)cc1OC(C)c1ccccc1 (single isomer, unassigned) [Example 97]")
"XX (Fold >50 and ≤200)"
>>> data_value("CNC(=O)c1[nH]c(C(=O)N[C@H]2C[C@H](O)C2)cc1O[C@@H](C)c1ccccc1")
"XX (Fold >50 and ≤200)"
>>> data_value("CCNC(=O)c1cc(OC(C)c2c(Cl)cccc2Cl)c(C(=O)NC)[nH]1 (single isomer, unassigned) [Example 67]")
"— (Fold ≥0 and ≤2)"
>>> data_value("CCNC(=O)c1cc(OC(C)c2c(F)cccc2F)c(C(=O)NC)[nH]1 (single isomer, unassigned)")
"— (Fold ≥0 and ≤2)"

Query: Fill in the blank: the reported Fold selectivity of CCNC(=O)c1cc(OC(C)c2cccc(C)c2)c(C(=O)NC)[nH]1 (racemic) is ____.
Response: XX (Fold >50 and ≤200)

* * *

- experiment: Beagle dog PK study 2 of Example 101 (HPβCD based formulation, IV), with clinical observations
- Type: in vivo
- measurement setup: beagle, dog, plasma, iv, 1 mg/kg, dog PK study 2, IV 1 mg/kg, HPβCD, Test Animal 1
assay metric: AUC(0-t) (ng·h/mL)
Write down the numeric answer in ng·h/mL and omit the unit.

Query: Fill in the blank: the reported AUC(0-t) of CNC(=O)c1[nH]c(C(=O)NC2CCC2)cc1O[C@@H](C)c1ccccc1 (stereo in doubt) is ____.
Response: 719

* * *

- assay system: BRD4 BD2 (Homo sapiens (Human), UniProt O60885)
- experiment: NanoBRET bromodomain assay, NanoLuc-BRD4-BD2 fusion in HEK293 cells;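 note: tracer displacement BRET read in transfected cells after 2 h compound exposure at 37 °C, signal in milliBRET units corrected against no-tracer background wells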
- measurement setup: BRD4 BD2 (IC50), NanoBRET, HEK293 cells, top concentration 10 μM
So I've got a bunch of compounds here, and I need their IC50 values.

Query: Fill in the blank: the reported IC50 of CNC(=O)c1[nH]c(C(=O)N[C@H](C)C(F)(F)F)cc1O[C@@H](C)c1ccccc1 is ____.
Response: > 10000 nM

Query: And what about the compound CNC(=O)c1[nH]c(C(=O)N[C@@H]2CCOC2)cc1O[C@@H](C)c1ccccc1 ?
Response: 200 to 1000 nM

Query: And what about the compound CCNC(=O)c1cc(OC(C)c2cccc(C)c2)c(C(=O)NC)[nH]1 (racemic) ?
Response: 50 to 200 nM

Query: And what about the compound CNC(=O)c1[nH]c(C(=O)N[C@@H](C)C(F)(F)F)cc1O[C@@H](C)c1ccccc1 ?
Response: > 10000 nM

Query: And what about the compound CCNC(=O)c1cc(OC(C)c2ccc(F)cc2F)c(C(=O)NC)[nH]1 (racemic) ?
Response: 200 to 1000 nM

Query: And what about the compound CNC(=O)c1[nH]c(C(=O)NC2CCC(F)(F)CC2)cc1OC(C)c1ccccc1 (single isomer, unassigned) [Example 104] ?
Response: > 10000 nM

Query: And what about the compound CNC(=O)c1[nH]c(C(=O)NC2CCC2)cc1OC(C)c1ccc(Cl)cn1 (single isomer, unassigned) ?
Response: 50 to 200 nM

Query: And what about the compound CCNC(=O)c1cc(OC(C)c2cccc(F)c2F)c(C(=O)NC)[nH]1 (racemic) ?
Response: 200 to 1000 nM

Query: And what about the compound CNC(=O)c1[nH]c(C(=O)NCC(F)(F)F)cc1O[C@@H](C)c1ccccc1 ?
Response: 50 to 200 nM
